Where do these numbers come from? They come from patent US20240246920A1.

System: C. krusei NCPF3876
test.details: microbe, parasite or virus in culture
Type: cell-based, Candida krusei
details: Pichia kudriavzevii, NCPF3876; Table 4, common panel; 24 hours, ≥50% inhibition; read-out: MIC C. krusei NCPF3876
measurement.type: MIC

Some compounds with recorded MIC:
OC(CN1CCC(Nc2ccc(OCCN3CCOCC3)cc2)CC1)(Cn1cncn1)c1ccc(F)cc1F (stereo not shown) [Example 6] :: 0.125 µg/mL
OC(CN1CCC(Nc2ccc(OCc3ccncc3)cc2)CC1)(Cn1cncn1)c1ccc(F)cc1F (stereo not shown) [Example 81] :: 0.125 µg/mL
OC(CN1CCC(Nc2ccc(OCCN3CCCC3)cc2)CC1)(Cn1cncn1)c1ccc(F)cc1F (stereo not shown) [Example 82] :: 8 µg/mL

Give MIC for the following compound: OC(CN1C[C@H]2CC(Nc3ccc(Cc4ccccc4)cc3)C[C@H]2C1)(Cn1cncn1)c1ccc(F)cc1F (stereo partly shown) [Example 16]
≤ 0.125 µg/mL
